target: SARS-CoV-2 Omicron BA.2.75 RBD (Omicron_BA.2.75_RBD-AviHis) (SARS-CoV-2 (Omicron BA.2.75 variant)); experiment: BLI, biotinylated RBD, mass transport model fit
property name: pKd
The scale used: pKd is minus the common logarithm of the concentration in molar units.

Take a look at these entries with their results.
binder	pKd
Ma28F04 (VHH, Monomeric VHH) VHH: QVQLVESGGGLVQPGGSLRLSCVVSDLGLDYYQIGWFRQAPGKEREGVSCFRSSDEIRYYADPVKGRFTTFRDNAGTTVYLQMNSLKPEDTGVYYCAVAPQTYYHGTWYGECAAAGMDSWGKGTLVTVSS	9.70
Ma28H11 (VHH, Monomeric VHH; also called M28H11) VHH: QVQLVESGGGLVQPGGSLRLSCATSGLTLDHYAIGWFLQAPGKEREGVACVSDDERSLYAPSVMGRFSISRDNAKKTFYLEMNSLKPEDTGVYYCASGPVVPGTLCRIPTVLGYDDWGQGTQVTVSS	9.22
Ma28D01 (VHH, Monomeric VHH) VHH: QVQLVESGGGLVQPGGSLRLSCVVSELGLDYYQIGWFRQAPGKEREGVSCFRSSDEIRYYADSVKGRFTTFRDNAGTTVYLQMNSLKPEDTGVYYCAVAPQTYYHGTWYGECAAAGMDSWGKGTQVTVSS	9.52

Here is the next item to consider.
### Prompt Which pKd value belongs to Ma16B06 (VHH, Monomeric VHH; also called VHH Ma16B06) VHH: QVQLVESGGGLVRTGGSLRLSCAASGSILQIWAMKWYRQAPGLQREWIATIPNSGEPFYASSVEGRFTGSRENEETVYLYLNNLEPEDTAVYYCEVNEGVPVREYWGQGTQVTVSS ?
### Response 10.22

This collection of values is drawn from patent EP4375293A1.
